# Test system: MS2 coat protein
# experiment.summary: apparent KD of MS2 coat protein; designed switch direction (-1 OFF switch, 1 ON switch): 1; higher = weaker reporter binding
# settings: input ligand: microRNA oligo, concentration not stated
Outcome label depends on apparent KD of MS2 coat protein relative to 80 nM: at/above gives Condition met, below gives Condition not met.

{"columns": ["construct.sequence", "class.name"],
 "data": [
  ["GCCGAACAUGAGGAUCACCCAUGUCUGGGUAAUCAAGGAUAUGGGAAGGCUUUGCCAUGACCAGAAGGUGGUUAUC [Zari] (Eterna round: R96, puzzle: Same State 1)", "Condition not met"],
  ["AUUAUUAAUGCAGGAUAUGAUUAACAUGAGGAUCACCCAUGUGGUGUUGUGAGUAAGGAGAGUGAUCAGAAGGGCAUUUUUUUU [JMF's solution 6] (Eterna round: R96, puzzle: Same State NG 2)", "Condition met"],
  ["ACCCGCGGGCCACAUGAGGAUCACCCAUGUGACCGGUGAUCCAAGGAUAUACGUGUGAUAGACGCGUAGAAGGUGGCCAAAACU [Rirazaedat] (Eterna round: R96, puzzle: Same State NG 3)", "Condition not met"],
  ["GAGUAGUUGAAAGGAUAUUGAUUGUUAUAGAAUCAAGAAGGUUCUAACAUGAGGAUCACCCAUGUAGGACUAUUCCUGUGUAUC [Parity 78 - Jieux - Same State NG 1] (Eterna round: R96, puzzle: Same State NG 1)", "Condition not met"]
]}

* * *

# Tested on: MS2 coat protein
# experiment.summary: apparent KD of MS2 coat protein; higher = weaker reporter binding
# settings: Eterna round: R107; input ligand: arginine 13.2 mM

{"columns": ["construct.sequence", "apparent KD of MS2 coat protein (nM)"],
 "data": [
  ["ACAUGAGGACCGGAUACCAGCCACACAACAUGAGGAUCACCCAUGUCCCAUGUAUGAGGAGGCCCUUGGCAGCCGACAUACAUGA [Exclusion - Theophylline B #1]", 48.2],
  ["UGAUGGUGCUGAAGGAGCGUGUAAGAACAAGAACAUGAGGAUCACCCAUGUAUUAAUUUAACGCAGGUAGGUCGCGGUGUUAUUG [11.M]", 22.4],
  ["UAUGCACAUGAGGAUCACCCAUGUAUGGAAGGAGCGGUGAAUAAACCAGGUAGGUCGCCAUGGUGAGGGUCAUCUAUGUAAUCGU [Exclusion - Arginine A (Freestyle 5)]", 51],
  ["AAACAUGAGGAUCACCCAUGUUCAAUAGAUACCAGUGAUACGGUGCACCCUUGGCAGCUGUUGCUGAGUGAUGGUUCCCUCGGUA [#24 SameState-TheophyllineA]", 19.9],
  ["UCUGGGUCCGCAAGGACCUGGAGUUGCGAUACCAGCACGGUAACGUGCCCUUGGCAGCGCACAUGAGGAUCACCCAUGUGGUGUU [#1 Exclusion - Theophylline A Attempt #17 (HarryS)]", 86.6]
]}

* * *

# Test system: K4 kissing-loop RNA reporter
# experiment.summary: apparent KD of K4 kissing-loop reporter; higher = weaker reporter binding
# settings: Eterna round: R107; input ligand: theophylline 20 uM
Each entry below lists one item and its recorded apparent KD of K4 kissing-loop reporter value.

{"columns": ["construct.sequence", "units.symbol", "apparent KD of K4 kissing-loop reporter"],
 "data": [
  ["UGGACCGCCUGAGGAUAUAGGGACGAGUGAUGUUCGUGGACCAGAGCCAGUGAUGUUGGGUUAUUUCUAGAAGGCGGGCGAACUU [Exclusion FMN B GF11]", "nM", 154],
  ["CUUGGAAGGACGGCCGCCACUCGACGGAGUGAUGUUCCGUGUGGGUAGCGCAGUGAUGUUGUGUCGAGGACCGGGUCCUAGGAAU [Exclusion Tryptophan B GF 28]", "nM", 160],
  ["UGUGAUGUGUAGUGUUAUGUUUUGCGGGAUACCAGAGUCUUUUUAUUCCCUUGGCAGCUUGAGUGAUGUUUGAUGCUGUUGUUGU [pwwamullin]", "nM", 463],
  ["AAGUGAUGUUGUAGUGAUGUUGUGAUGUUGCAGGAUAUAUAGUGAUGUAGAAGGGUAUGUGCAGUUUUUUUUUUUGAGUGUUGAU [dpdmullin]", "nM", 43.1],
  ["AAAUAGAUCAGUCAUCCAGUGAUGUUGGAAGGAGCGUGCGAAAGCACAGGUAGGUCGCCAGAAUAAAAGUGGCUGAUCAAAAUAA", "nM", 467],
  ["GAUGUAGAGGCGGCCGCCACUAGUGAUGUUAGUGAUGUUUGAUACUGUAUAUAUCGGCGUGUAGAUAGGACCGGGCCUGAUGGAG [dbbdmullin]", "nM", 225],
  ["UAGUCCUAGUGAUCCUUAUCAAGUGGUGGGCGAGGACCGGUACGGCCGCCACUCGACUAUGCAGUGAUGUUGUAAUCCGGACAAU [Exclusion - Tryptophan A (Freestyle 12)]", "nM", 742],
  ["AACAACUUGUUUGUCGGGUGUUCGCGCGAUACCAGCCGAAUGGAUGGCCCUUGGCAGCGCAGCGAGUGAUGUUCGCCCGCUUGAC [Exclusion Theophylline A GF 24]", "nM", 529],
  ["GUAUCGCUAGGAGGAUAUGUCGUUUUUCAUAGCAAUGGCUGUGCGGAGUGAUGUUCCGAUUUACCGGCAGAAGGCCUAGUGAUAC [FMN B 28]", "nM", 106],
  ["AGAUUCGACACGGCCGCCACUUCCAGUGGUCGGUGUCAUGGUGCACAUGAGUGAUGUUCAUGUGGAAGGACCGGGUGUUGAGUCU [KL-XTryp-B3 #analogue]", "nM", 108],
  ["GUAUGUUCGAAAGAACGUACAUCUUCGGAAGGAGCGCGUGAAAACGCAGGUAGGUCGCCGAAGUUAUUAGGUAGUGAUGUUACCU [Arginine A K4 8]", "nM", 109],
  ["UAUUAAGUGACGGCCGCCACUAUGGUGAUUUAUUUGUUUGAGUGAUGUUUUGAUGUUUGAUUUUGUAGGACCGGGUUAUGUGUUA [ttttcmullin]", "nM", 752]
]}

* * *

# Tested on: K4 kissing-loop RNA reporter
# experiment.summary: apparent KD of K4 kissing-loop reporter; higher = weaker reporter binding
# settings: Eterna round: R107; input ligand: FMN 200 uM
Outcome label depends on apparent KD of K4 kissing-loop reporter relative to 200 nM: at/above gives 1, below gives 0.

{"columns": ["construct.sequence", "class.name"],
 "data": [
  ["GAACGGCGGGCGGCCGCCACUGGUAUACGAGUGAUGUUCGGAUAUACAUAAAAUAAGGUAAUUAACAGGACCGGGUCAGAGCCGG [Tryptophan B Same State; Euphoria Solution]", 0],
  ["GGACCUCAGUGAUGUUGAGGUAACACUGAUACCAGCGACUUAAUUCGCCCUUGGCAGCAGUCCACCGAGGUAUCUGAUUAGGUCU [#23 K4 Theophylline A Exclusion]", 1],
  ["AGGGCGGAGUGAUGUUCCGGCUCCCGAUUUAAGGAUAUUGCGUAAACAAGAAGGUAAAGGCGCAGCAAUAUUAUUUCGUAAGGCG [theeternabot_exclusion_KL_FMN_A_23]", 0],
  ["GUUACGCAUGGAAGGAGCGCAGGCUCAACAAAUAGCUCAGUGAUGUUGAGCAAAUUAAAACUGCAGGUAGGUCGCCAUGUGUAAC [Ex Arginine B K4 22]", 1]
]}

* * *

Each entry below lists one item and its recorded apparent KD of K4 kissing-loop reporter value.
# Test system: K4 kissing-loop RNA reporter;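 note: bound reporter read as fluorescence of individual clusters on recovered sequencing chips by microscopy, with normalized cluster intensities fitted with a binding model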
# experiment.summary: apparent KD of K4 kissing-loop reporter; higher = weaker reporter binding
# settings: Eterna round: R107; input ligand: none
reported.metric: apparent KD of K4 kissing-loop reporter (nM)

{"columns": ["construct.sequence", "experimental.value"],
 "data": [
  ["UGGGAUGUUAAAGGAUAUAGCAGAUGAUACAAGAAAGUGAGUGAUGUUUAUGUAGAUGAUGAUAUGUUAGAAGGUUAACAAAACG [abcdefghijk]", 754],
  ["UGUGUUUACCUGACUCAGUGAUGUUGAGAAGGAGCGUUCGAAAGAACAGGUAGGUCGCUCAACCUAAAUUCAGGUGAGCACUAAA", 376],
  ["GCUAUGGUAGGAAGGAGCGCUACCUUGUUUUUACGAGUGAUGUUCGGAAGCAGGGUGUUAAAGCAGGUAGGUCGCCUACUAUAGC [Arginine B K4 21]", 167],
  ["ACCACCAGCCGCACGAUACACGGGCAUUACCGAGGACCGGUACGGCCGCCACUCGCCCGCACGCUGGAUCGAGUGAUGUUCGAUC [theeternabot_sameState_KL_Trp_A_15]", 384],
  ["CGAGCGCGUGCGGCCGCCACUACUAUAAGUCGUCCAAGUUAGUGAUGUUGACUGAACGUCGGAAAUAGGACCGGGCAUAGUUUUA [theeternabot_sameState_KL_Trp_B_40]", 420],
  ["AAGCAGUCUCUCGAAGCCAUCGAAGAUGGGCGAGGACCGGUACGGCCGCCACUCGGAGUGAUGUUCCGAAGACUGCAAAAUAAAA [MatMod 10 - Jieux - Exclusion - Tryptophan A]", 396]
]}

Hey, just so you know, these numbers are from the supplement of paper PMC9170038.
